IC50: recorded values
experiment: Inhibition of GST-tagged bacterial beta-lactamase IMP-1 expressed in Escherichia coli BL21(DE3) using CCF2-FA as substrate by fluorescence assay; set-up: species or system Bacteria
Kindly provide the numeric value in nM only, without the unit symbol.

These recorded examples may help you get a feel for the data.
# Compound, IC50 [nM]
measured = [
    ("CCCc1c(OCc2cccc(-c3ccccc3-c3nnn[nH]3)c2)ccc(C(C)=O)c1O", 1),
    ("Cc1ccc(-c2cccc(C(=O)O)c2-c2nnn[nH]2)cc1", 2410),
    ("Nc1cc(-c2nnn[nH]2)c(S(N)(=O)=O)cc1S(N)(=O)=O", 17),
    ("NS(=O)(=O)c1nccc(-c2ccccc2)c1-c1nn[nH]n1", 375),
    ("O=C(O)COc1ccc2c(c1)CCN(C(=O)C(CS)CCc1ccccc1)C2C(=O)O (stereo unspecified)", 0.155),
    ("NS(=O)(=O)c1cncc(-c2ccc(CO)cc2)c1-c1nn[nH]n1", 678),
    ("NS(=O)(=O)c1ccnc(-c2ccc(CO)cc2)c1-c1nn[nH]n1", 767),
    ("NS(=O)(=O)c1cccc(-c2ccc(CO)cc2)c1-c1nn[nH]n1", 46),
]

Measured IC50 of Cc1ccc(-c2cccc(S(N)(=O)=O)c2-c2nnn[nH]2)cc1 : 64

Measured IC50 of NS(=O)(=O)c1cccc(-c2ccncc2)c1-c1nn[nH]n1 : 485
